test.name: Acute toxicity, LD50 of each drug in male mice (DBA)
Type: in vivo
experimental.context: mouse, in vivo, ip; intraperitoneal; male mice (DBA); read-out: LD50 (mg/kg) Intraperitaneally
Classify: Criterion met when LD50 is strictly less than 400 mg/kg; Criterion not met when LD50 is not.

Ask: In the record for NC(=O)c1ccc(CCC(Cl)CCl)cn1 (centres unmarked) [Compound 4, 5-(3,4-Dichlorobutyl)picolinamide] , is LD50 less than 400 mg/kg?
Reply: Criterion met

Ask: Given CC(Br)CCc1ccc(C(N)=O)nc1 (centres unmarked) [Compound 2, 5-(3-Bromobutyl)picolinamide] , is recorded LD50 strictly lower than 400 mg/kg?
Reply: Criterion not met

Ask: Would you kindly verify if LD50 of O=C(O)c1ccc(CCC(Br)CBr)cn1 (centres unmarked) [Compound 6, 5-(3,4-dibromobutyl)picolinic acid, reference compound] is strictly less than 400 mg/kg?
Reply: Criterion met

Ask: # check: LD50 < 400 mg/kg for CCCCc1ccc(C(=O)O)nc1 [Compound 7, Fusaric acid]
Reply: Criterion met

Ask: Answer whether the compound NC(=O)c1ccc(CCC(Br)CBr)cn1 (centres unmarked) [Compound 1, 5-(3,4-Dibromobutyl)picolinamide] has LD50 strictly less than 400 mg/kg
Reply: Criterion not met

* * *

test.name: Acute toxicity, LD50 of each drug in male mice (DBA)
Type: in vivo
experimental.context: mouse, in vivo, po
Provide the recorded LD50 for the entries that follow.
# number only, unit mg/kg dropped from output

Ask: Can you look up the measured LD50 of CN(C)C(=O)c1ccc(CCC(Br)CBr)cn1 (centres unmarked) [Compound 3] for me?
Reply: 500

Ask: // lookup LD50 for CN(C)C(=O)c1ccc(CCC(Cl)CCl)cn1 (centres unmarked) [Compound 5]
Reply: 300

* * *

test.name: Acute toxicity, LD50 of each drug in male mice (DBA)
Format: in vivo
experimental.context: mouse, in vivo; oral; male mice (DBA); read-out: LD50 (mg/kg) Orally
Binarize LD50 at 600 mg/kg; below is Fulfilled, at or above is Not fulfilled.

Ask: Consider the molecule O=C(O)c1ccc(CCC(Br)CBr)cn1 (centres unmarked) [Compound 6, 5-(3,4-dibromobutyl)picolinic acid, reference compound] . Is its LD50 strictly less than 600 mg/kg?
Reply: Fulfilled

Ask: Bench note: check whether CCCCc1ccc(C(=O)O)nc1 shows LD50 below 600 mg/kg
Reply: Fulfilled

Ask: # check: LD50 < 600 mg/kg for NC(=O)c1ccc(CCC(Br)CBr)cn1 (centres unmarked) [Compound 1, 5-(3,4-Dibromobutyl)picolinamide]
Reply: Not fulfilled

Ask: For CC(Br)CCc1ccc(C(N)=O)nc1 (centres unmarked) [Compound 2, 5-(3-Bromobutyl)picolinamide] , is the recorded LD50 below the cut-off of 600 mg/kg?
Reply: Not fulfilled

Ask: Determine if NC(=O)c1ccc(CCC(Cl)CCl)cn1 (centres unmarked) [Compound 4, 5-(3,4-Dichlorobutyl)picolinamide] shows LD50 strictly lower than 600 mg/kg.
Reply: Not fulfilled
